Overview of recorded apparent KD of MS2 coat protein for various sequences
Test system: MS2 coat protein
Assay: apparent KD of MS2 coat protein; designed switch direction (-1 OFF switch, 1 ON switch): 1; higher = weaker reporter binding
Details: input ligand: microRNA oligo, concentration not stated
The answer is to be given in nM; state only the numeric part.

INPUT_SEQUENCE: GAGUGGAGGAGAGGAUAUACAUUGAUAAUCACUGUAGAAGGUUCUAACAUGAGGAUCACCCAUGUAGGACUAUUCCUGAGAGUU [Parity 52 - Jieux - Same State NG 1] (Eterna round: R96, puzzle: Same State NG 1)
EXPERIMENTAL_TARGET: MS2 coat protein
apparent KD of MS2 coat protein (nM): 10.1

INPUT_SEQUENCE: ACCCGCGACGGAGGAUAUGGGCACUCGGCGAAAUAAACCGCCAUAACAUGAGGAUCACCCAUGUCCCAGAAGGCCGUCGCAAUC [Anlelaen] (Eterna round: R96, puzzle: Same State NG 2)
EXPERIMENTAL_TARGET: MS2 coat protein
apparent KD of MS2 coat protein (nM): 154

INPUT_SEQUENCE: UUGAAGAAUUAAGGAUAUUGAAUACAUAUGUUUAACAUGAGGAUCACCCAUGUGGGUUGCGGUAUCGAGAAGGUAAAUUACUAG [JL SSNG2 1.49] (Eterna round: R96, puzzle: Same State NG 2)
EXPERIMENTAL_TARGET: MS2 coat protein
apparent KD of MS2 coat protein (nM): 76.3

INPUT_SEQUENCE: UUAGAAUUGCAAGGAUAUCUUAUUUAGAUAGUAAGAGAAGGUGCUUUAUAGUUACAUGAGGAUCACCCAUGUAUUUCUUUUUAU [JR_SSNG1_Sub061] (Eterna round: R96, puzzle: Same State NG 1)
EXPERIMENTAL_TARGET: MS2 coat protein
apparent KD of MS2 coat protein (nM): 16.6

Kindly review the next sequence as well.
Please tell me: apparent KD of MS2 coat protein of AACAUACAUGAGGAUCACCCAUGUUCCGGCAGGACAGGAUAUACAUCGAAAGUGUUAUAAGUAGAAGGGUCAUAAA [JR_SS001_Sub012] (Eterna round: R96, puzzle: Same State 1) , system MS2 coat protein?
56.6

###

Overview of recorded apparent KD of MS2 coat protein for various sequences
Tested on: MS2 coat protein
Assay: apparent KD of MS2 coat protein; higher = weaker reporter binding
Details: Eterna round: R107; input ligand: theophylline 2 mM
The answer is to be given in nM; state only the numeric part.

INPUT_SEQUENCE: GAGGAAACUCACAUGAGGAUCACCCAUGUACGAGGACCGGUACGGCCGCCACUCGAAACCAUGGGCGGUAGUACAUGGAAACAUG [Design 2 MOD]
apparent KD of MS2 coat protein [nM]: 75.5

I'd like to know its apparent KD of MS2 coat protein. The sequence in question is ACUGGAGGUGGAAGGAGCGGGAGACAUGAGCAUCACAUGAGGAUCACCCAUGUAGGAUCAUCCCAGGUAGGUCGCCAUGUCGAAA [rtfemullin]
431

I'd like to know its apparent KD of MS2 coat protein. The sequence in question is UACAUAUGCCGAAGGAGCGCGAGAUGCAAAGCAUCAAUCCUUACAUGAGGAUCACCCAUGUCGCAGGUAGGUCGCGGCAUAUGUU [ArgBX 2]
44.7

I'd like to know its apparent KD of MS2 coat protein. The sequence in question is UACCGAUGAAGAAGGAGCGUGCGUGGUUCACAUGAGGAUCACCCAUGUGCUUUAUACUAGGCACAGGUAGGUCGCUUCAUCGGUA [SSAB NP+V+V2 #22]
27.8

I'd like to know its apparent KD of MS2 coat protein. The sequence in question is AAAUAAAUACAUGAGGAUCACCCAUGUGAAGGAGCGCCCGUUAGGGCAGGUAGGUCGCGCAUGAAUAACUCCGUGCAAAAGCACA [ArgEX 19 #OpenEnded]
26.4

I'd like to know its apparent KD of MS2 coat protein. The sequence in question is ACAUGAGGAUCACCCAUGUAACGGCAUAAUCGAGGACCGGUACGGCCGCCACUCGGAAUCAGUGACAGGCAUAUUUAUUAUAAGA [Eclusion - Tryptophan A / A]
11.5

I'd like to know its apparent KD of MS2 coat protein. The sequence in question is AGGUGCUGAUCGGCCGCCACUGAGAGGACGUGAACUUUAGCUGGUUACAUGAGGAUCACCCAUGUCAGGACCGGGAUUAGUUUGC [Quleorla]
10.7

###

Overview of recorded apparent KD of MS2 coat protein for various sequences
Tested on: MS2 coat protein
Test: apparent KD of MS2 coat protein; designed switch direction (-1 OFF switch, 1 ON switch): 1; higher = weaker reporter binding
Settings: input ligand: none
Give the value; after it, write the unit.

I'd like to know its apparent KD of MS2 coat protein. The sequence in question is GUUUUUAGUGCAGGAUAUGAUCAACAUGAGGAUCACCCAUGUGGCGUUGUGAGUAGGGAGAGAGAUCAGAAGGGCGUCUCCGCG [SS-NG2-LRO13] (Eterna round: R96, puzzle: Same State NG 2)
57.3 nM

I'd like to know its apparent KD of MS2 coat protein. The sequence in question is GGUAUCGGCACAGGAUAUGCUAUCCUUUGGGUAGCAGAAGGGUGGACAUGAGGAUCACCCAUGUGGGUGCCAGGGCGUGAGCCC [JL SSNG1 1.85] (Eterna round: R96, puzzle: Same State NG 1)
907 nM

I'd like to know its apparent KD of MS2 coat protein. The sequence in question is UAAUAAAAGGAUAUACAUGAGGAUCACCCAUGUCCGUCUGCCAAGGAUAUCUAGGAUCAAGCAGCAGAGAAGGUGGCACGCCAC [Eternabot solution 35] (Eterna round: R96, puzzle: Same State NG 3)
18.3 nM

###

System: MS2 coat protein
Assay: apparent KD of MS2 coat protein; designed switch direction (-1 OFF switch, 1 ON switch): -1; higher = weaker reporter binding
Conditions: input ligand: microRNA oligo, concentration not stated
QUANTITY_MEASURED: apparent KD of MS2 coat protein (nM)
The answer is to be given in nM; state only the numeric part.

Solved cases below.
INPUT_SEQUENCE: GGGUAGUGAGGAUAUCGUUGUUAGGAGGAGUAGGUAGGAGGCGAGAAGGCACAUGAGGAUCACCCAUGUAUGAA [JR_Exclu4_Sub066] (Eterna round: R96, puzzle: Exclusion 4)
EXPERIMENTAL_TARGET: MS2 coat protein
apparent KD of MS2 coat protein (nM): 26.2
--
INPUT_SEQUENCE: ACAUGUAUUGCAGGAUAUGGGACACAUGAGGAUCACCCAUGUGACCACAUGUAAUGCCACGGGUCUCAGAAGGGUAUGUACAUG [Ex NG2 #43] (Eterna round: R96, puzzle: Exclusion NG 2)
EXPERIMENTAL_TARGET: MS2 coat protein
apparent KD of MS2 coat protein (nM): 22.9
--
INPUT_SEQUENCE: UGAGUGCUGCGAGGAUAUACAUGAGGAUCACCCAUGUAAAAGUGUGAGGCUUUGCCUCACACUAUGUAGAAGGCGCAGUACUCU [JL ENG2 1.04] (Eterna round: R96, puzzle: Exclusion NG 2)
EXPERIMENTAL_TARGET: MS2 coat protein
apparent KD of MS2 coat protein (nM): 10.6
--
INPUT_SEQUENCE: UGAUCUAGCGGAGGAUAUACAUGAGGAUCACCCAUGUAGAUGAGUGUACCGUAGUGCACUCUUGUGUAGAAGGCCGCUAGAUCU [JL ENG2 3.56] (Eterna round: R96, puzzle: Exclusion NG 2)
EXPERIMENTAL_TARGET: MS2 coat protein
apparent KD of MS2 coat protein (nM): 12.6
--
INPUT_SEQUENCE: ACAUGAGGAUCACCCAUGUCCGGUUGGUCUGUUCCGGCUGUCGAGGAUAUAGUCCGGUGUUCGCGCUAGAAGGCGAGGGCUGGA [Aenatbe mod 47] (Eterna round: R96, puzzle: Exclusion NG 3)
EXPERIMENTAL_TARGET: MS2 coat protein
apparent KD of MS2 coat protein (nM): 227

I'd like to know its apparent KD of MS2 coat protein. The sequence in question is AAGACUCGCAAUAAGAACAAGCACUCCGAACUAUAAGUAACAUGAGGAUCACCCAUGUCAAGGGUGCCAAAGUCAAA [JR_Sensorv2_tov2_Sub302] (Eterna round: R96, puzzle: Sensor v2, turn-off variant 2)
16

I'd like to know its apparent KD of MS2 coat protein. The sequence in question is UAUCGGGACUGAGGAUAUUCGUUCGAACACGAAGAAGAAGGUAGUGUCAGGGACAUGAGGAUCACCCAUGUGAUUUCAGUCCCA [JL ViennaUCT Erinle mod 4] (Eterna round: R96, puzzle: Exclusion NG 1)
96.8

I'd like to know its apparent KD of MS2 coat protein. The sequence in question is UUUAAUCAUGUAGGAUAUGCGUGGCGAAGCUAUGCAGAAGGACAUGAGGAUCACCCAUGUUCUAGCGUCUGCGUACAGAUGCUA [JL ENG1 1.36] (Eterna round: R96, puzzle: Exclusion NG 1)
33

I'd like to know its apparent KD of MS2 coat protein. The sequence in question is UUUUUAUAUGAAGGAUAUACUAAACAUGAGGAUCACCCAUGUGGUGUUGUGAGUGAGAGAGAUAAGUAGAAGGUCAAUUAUUUU [JMF's solution 4] (Eterna round: R96, puzzle: Exclusion NG 2)
62.6

I'd like to know its apparent KD of MS2 coat protein. The sequence in question is AUCAGCUCGUCAGGAUAUACAUGAGGAUCACCCAUGUGAUCAAUAGCAGCUUCGGCUGCAUACAUGUAGAAGGGACGAGCUGAU [ENG2/6-B3] (Eterna round: R96, puzzle: Exclusion NG 2)
234

I'd like to know its apparent KD of MS2 coat protein. The sequence in question is GGGCCGGCCGGAGGAUAUGCGGCCCGGCCGGCCGGUGGGCCGGCCGGGACAUGAGGAUCACCCAUGUAGAAGGCCGGCCGGCCC [low energy, MS2 in another position, A 14%] (Eterna round: R96, puzzle: Exclusion NG 2)
13.7

I'd like to know its apparent KD of MS2 coat protein. The sequence in question is GUGGUCUAUGUAGGAUAUACGUUUGUGCGAUGCGUAGAAGGACAUGAGGAUCACCCAUGUGUGCGAGGAUCACCCGUGUGUUGU [double] (Eterna round: R96, puzzle: Exclusion NG 1)
83.9

I'd like to know its apparent KD of MS2 coat protein. The sequence in question is UUUGUUUAUGUAGGAUAUGCCUGGCGUGCCUUCGCAGAAGGACAUGAGGAUCACCCAUGUAUUGCGGUCUGCGUUCAGAUCGCA [salish99_ExNG1_r4_031] (Eterna round: R96, puzzle: Exclusion NG 1)
30

I'd like to know its apparent KD of MS2 coat protein. The sequence in question is CGGUGUAACGCAGGAUAUCAUCGCAACUGACGUUGAGAAGGGCGACAUGAGGAUCACCCAUGUGAUUUCUCAAUAUUAUACAUC [Prohibition 84 - Jieux - Exclusion NG 1] (Eterna round: R96, puzzle: Exclusion NG 1)
36.5

I'd like to know its apparent KD of MS2 coat protein. The sequence in question is GUCCUCAUGACAUGAGGAUCACCCAUGUAUUAUUUGUUAACUGAGGAUAUACUCUUAAUGUUUAUGUAGAAGGCAGAUUCGGUC [JR_ExcNG3_Sub019] (Eterna round: R96, puzzle: Exclusion NG 3)
37.8

I'd like to know its apparent KD of MS2 coat protein. The sequence in question is AAAGCCAAGCGAGGAUAUGCGAUAGUUGAUCUUCGUGAGGACAUGAGGAUCACCCAUGUGCUGCAGCAGAAGGCGCAGGUAAAG [Anramaqu] (Eterna round: R96, puzzle: Exclusion NG 2)
140

I'd like to know its apparent KD of MS2 coat protein. The sequence in question is UUAAAUCAUGUAGGAUAUGCGUGGAGAAACUAUGCAGAAGGACAUGAGGAUCACCCAUGUGCUUCCGUCUGAGAACAGACGGUA [Mat - Exclusion NG 1 - Mod of JL - D14] (Eterna round: R96, puzzle: Exclusion NG 1)
43.2

I'd like to know its apparent KD of MS2 coat protein. The sequence in question is AAUUAUUUAUGAGGAUAUUGUGGUGAAACACCACAAGAAGGCAUGAUACACAUGAGGAUCACCCAUGUGAGCCUGAUGCAUAUA [Ex NG1 #58] (Eterna round: R96, puzzle: Exclusion NG 1)
13.5

Values compiled from the supplement of paper PMC9170038.
